assay: inhibition of 3D7 malaria parasite growth – strain 3D7 (AID 2306);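 note: 0% = DMSO wells and 100% = chloroquine plus artemisinin control wells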; conditions: P. falciparum 3D7 erythrocytic growth, LDH absorbance, 72 h; at 2 µM; stronger effect = higher value
What growth inhibition was measured for each of the following?
Give the quantity in %, number only.

Ask: Dear colleague, I am looking for the recorded growth inhibition of the following compound: "CC(C)CNCc1ccc(-c2ccc(CN(C(=O)NC3CCCCC3)C3CCN(Cc4ccccc4)CC3)cc2)cc1"
Reply: 101

Ask: Proceed to CC(Cc1ccc(NC(=O)[C@H](C)NCCc2cccc(Cl)c2)cc1)NCCc1cccc(Cl)c1 (stereo not given in full)
Reply: 100

Ask: Proceed to CC(Cc1ccc([N+](=O)[O-])cc1)NCC(O)c1cccc(C(F)(F)F)c1 (stereo not given)
Reply: 98

Ask: Proceed to COc1c(F)cc(CC(C)NCC(O)c2cccc(Cl)c2)cc1F (stereo not given)
Reply: 93

Ask: Proceed to "Cc1[nH]c2cc(Cl)ccc2c1C1=CCN(CCN2CCOc3c(Br)cccc3C2=O)CC1"
Reply: 90

---

What cell count was measured for each of the following?
test: sensitizers of A549 cells to miR-34 induction, primary screen, imaging, A549 dox-inducible miR-34, nuclei and caspase counts (AID 1347080); conditions: A549 miR-34 inducible, Hoechst nuclei count, 48 h; measured here: total cells with miR-34 induction; stronger effect = lower value
I'd appreciate a reply containing only the number, no unit.

Ask: Dear colleague, I am looking for the recorded cell count of the following compound: CN(C)C1C(=O)C(C(N)=O)=C(O)[C@@]2(O)C(=O)C3=C(O)c4c(O)cccc4[C@@](C)(O)[C@H]3C(O)[C@@H]12 (some centres undefined)
Reply: 7930

Ask: Proceed to CC=C(C)C(=O)NC(c1ccccc1)C(O)C(=O)OC1C[C@@]2(O)C(OC(=O)c3ccccc3)[C@@H]3[C@]4(OC(C)=O)COC4CC(O)[C@@]3(C)C(=O)C(OC(C)=O)C(=C1C)C2(C)C (some centres undefined)
Reply: 1460

Ask: Proceed to "C[C@]12CC[C@H](O)C[C@@H]1CC[C@@H]1[C@@H]2CC[C@]2(C)C(=O)CC[C@@H]12"
Reply: 7960

Ask: Proceed to "CCCCC/C=C\C/C=C\C/C=C\C/C=C\CCCC(=O)NCc1ccoc1"
Reply: 5700

Ask: Proceed to "COc1ccc(C(=O)O[C@H]2CC[C@@]3(C)[C@@H]4CC[C@H]5[C@]6(O)C[C@H](O)[C@@]7(O)[C@@H](CN8C[C@@H](C)CC[C@H]8[C@@]7(C)O)[C@]6(O)C[C@@]53O[C@]24O)cc1OC"
Reply: 6050

Ask: Proceed to "C[N+](C)(C)CCOC(=O)CBr"
Reply: 10100

Ask: Proceed to "COC(=O)[C@@H](N)CCCN/C(N)=N/[N+](=O)[O-]"
Reply: 5570

Ask: Proceed to "CC(=O)Nc1ccc(OC[C@](C)(O)C(=O)Nc2ccc([N+](=O)[O-])c(C(F)(F)F)c2)cc1"
Reply: 7800

Ask: Proceed to "CCCC(=O)OCC[N+](C)(C)C"
Reply: 10000

Ask: Proceed to "CC(=O)O[C@H]1CC[C@@]2(C)C(=CC[C@@H]3[C@@H]2CC[C@]2(C)C(=O)CC[C@@H]32)C1"
Reply: 9250

Ask: Proceed to CCCCCCCCCCNCCC (tested in a mixture with another compound)
Reply: 11300

Ask: Proceed to C[C@@H]1O[C@@H](O[C@H]2C[C@@H](O)[C@]3(CO)[C@@H]4C(CC[C@]3(O)C2)[C@@]2(O)CC[C@H](C3COC(=O)C3)[C@@]2(C)C[C@H]4O)[C@H](O)[C@H](O)[C@H]1O (some centres undefined)
Reply: 370

Ask: Proceed to "O=C(O)CC[N+](=O)[O-]"
Reply: 10800

Ask: Proceed to "O=[N+]([O-])c1ncc[nH]1"
Reply: 7870

Ask: Proceed to "Cc1o[nH]c(=O)c1C[C@H](N)C(=O)O"
Reply: 9160

Ask: Proceed to "C(#CCN1CCCC1)CN1CCCC1"
Reply: 8550

Ask: Proceed to "COc1ccc(C[C@@H]2NC[C@@H](O)[C@@H]2OC(C)=O)cc1"
Reply: 1100

Ask: Proceed to O=C1OC2(c3cc(Br)c(O)cc3Oc3c2cc(Br)c(O)[c]3[Hg])c2ccccc21 (centres undefined)
Reply: 9490

Ask: Proceed to "CCc1c(C(=O)C(N)=O)c2c(OCC(=O)O)cccc2n1Cc1ccccc1"
Reply: 7750

Numbers sourced from PubChem BioAssay.
